Target: RanGTP-importin-beta complex (human Ran / KPNB1)
Experiment: disruptors of RanGTP/KPNB1 binding – biochemical, FRET, CFP/YFP, cell-free homogeneous, confirmation (AID 2823)
Details: CFP-Ran/YFP-importin-beta FRET ratio
Calls of active or inactive are those of the source. The rule behind the calls is not given here.
measured property: IC50

- compound: "COc1ccc(C(=O)Nc2ccc(S(=O)(=O)Nc3onc(C)c3C)cc2)cc1"
  observed result: "> 50 µM (inactive)"
- compound: "C/C(=N\\NC(=S)NCc1ccccc1)c1cccc(Br)c1"
  observed result: "> 50 µM (inactive)"
- compound: "CCN1CCN(c2cc(=O)n(Cc3ccc(F)cc3)c(=O)[nH]2)CC1"
  observed result: "> 50 µM (inactive)"
- compound: "Fc1ccccc1N1CC(c2ccccc2)C(c2cccs2)=N1 (stereo unspecified)"
  observed result: "20.8 µM"
- compound: "CC(C)(C)C(=O)NC(=S)Nc1ccc(S(=O)(=O)Nc2nccs2)cc1"
  observed result: "> 50 µM (inactive)"
- compound: "CCCN1CC(O)=C(C#N)C1=O"
  observed result: "> 50 µM (inactive)"
- compound: "COc1ccc(-c2c(C)c3ccc(O)cc3oc2=O)cc1OC"
  observed result: "37.2 µM"
- compound: "O=C1NC(c2cccc([N+](=O)[O-])c2)Oc2ccccc21 (stereo unspecified)"
  observed result: "> 50 µM (inactive)"
- compound: "CCOc1ccc(C)cc1S(=O)(=O)Nc1ccc(Cl)cn1"
  observed result: "> 50 µM (inactive)"
- compound: "O=C1CCCN2N=C(SCC(=O)N3N=C(c4ccc(Br)cc4)CC3c3ccc(F)cc3)SC2=N1 (stereo unspecified)"
  observed result: "> 50 µM (inactive)"
- compound: "Clc1ccc(/C=C\\c2nccc3c2[nH]c2ccccc23)cc1"
  observed result: "> 50 µM (inactive)"

====

Biological target: RanGTP-importin-beta complex (human Ran / KPNB1)
Assay: disruptors of RanGTP/KPNB1 binding – biochemical, FRET, CFP/YFP, cell-free homogeneous, confirmation (AID 2823)
Conditions: CFP-Ran/YFP-importin-beta FRET ratio
Activity calls are given as the source filed them. No rule for the calls is given here.
Outcome codes: label 1 (active), label 0 (inactive)

- compound: "CN=C(Nc1cc(C)nn1CCC#N)c1ccccc1"
  assigned label: "label 0"
- compound: "Cc1ccc(S(=O)(=O)CC(=O)N(CCCN(C)C)c2nc3ccc(C)cc3s2)cc1"
  assigned label: "label 0"
- compound: "O=C(O)c1cccc(Nc2c3ccccc3nc3ccccc23)c1"
  assigned label: "label 0"
- compound: "COc1ccc(C2c3c(ncn(Cc4ccco4)c3=N)Oc3ccc4ccccc4c32)cc1 (stereo unspecified)"
  assigned label: "label 0"
- compound: "Cc1c(OCC(=O)NCc2ccncc2)ccc2c3c(c(=O)oc12)CCC3"
  assigned label: "label 0"
- compound: "COc1ccc(C(=O)Nc2sc3c(c2C#N)CCN(C(C)=O)C3)cc1"
  assigned label: "label 0"
- compound: "Cc1ccc2cc(C#N)c(N3CCCN(C(=S)NCCCN(C)C)CC3)nc2c1"
  assigned label: "label 1"
- compound: "c1ccc2c(c1)nc(NCC1CCCO1)c1nnnn12 (stereo unspecified)"
  assigned label: "label 1"
- compound: "Cn1cnc(S(=O)(=O)N2CCN(c3ccc(Cl)cc3)CC2)c1"
  assigned label: "label 0"
- compound: "CC1(C(=O)O)C=CCN1C(=O)c1ccccc1 (stereo unspecified)"
  assigned label: "label 0"
- compound: "COc1ccc(NC(=O)/C(C#N)=C\\c2ccc(N3CCOCC3)o2)cc1"
  assigned label: "label 0"
- compound: "O=C(NNc1c2ccccc2nc2ccccc12)C12CC3CC(CC(C3)C1)C2"
  assigned label: "label 0"
- compound: "CC(=O)N(c1ccc(Cl)cc1)c1c[nH]c2ccccc12"
  assigned label: "label 0"
- compound: "c1c2c(cc3sc(N4CCOCC4)nc13)OCCO2"
  assigned label: "label 0"
- compound: "C/C(=C\\C(=O)C(F)(F)F)Nc1ccc(C(F)(F)F)cc1"
  assigned label: "label 0"
- compound: "CCN1CCc2c(sc(NC(=O)Cc3ccccc3)c2C(=O)OC)C1"
  assigned label: "label 0"
- compound: "CCN(CC)C(=O)Oc1ccc2c(c1)O/C(=C\\c1ccco1)C2=O"
  assigned label: "label 1"
- compound: "COC(=O)c1cc(C(=O)OC)[nH]n1"
  assigned label: "label 0"
- compound: "CC(c1nc2ccccc2n1Cc1ccccc1)N1CCCCC1 (stereo unspecified)"
  assigned label: "label 0"
- compound: "O=C(c1cccc(-c2ccccc2)c1)N1CC[C@@H](N2CCC(O)CC2)[C@H](O)C1"
  assigned label: "label 0"
- compound: "CC(C)(C)Nc1c2ccccc2nc2ccccc12"
  assigned label: "label 0"
- compound: "O=C(c1ccco1)N1CCN(c2cc(=O)n(-c3ccc(Cl)cc3)c(=O)[nH]2)CC1"
  assigned label: "label 0"
- compound: "COc1ccc(CCNc2oc(-c3ccco3)nc2C#N)cc1"
  assigned label: "label 0"
- compound: "CCN1CCC2(CC1)C(C#N)=C(N)Oc1c2sc2nc(C)cc(C)c12"
  assigned label: "label 0"
- compound: "CCN1CCc2c(sc(NC(=O)C3CCCCC3)c2C(=O)OC)C1"
  assigned label: "label 0"
- compound: "CCCCc1cc(-c2n[nH]c(=S)o2)c2ccccc2n1"
  assigned label: "label 0"
- compound: "CC1(C)CC(=O)C=C(Nc2ccccc2O)C1"
  assigned label: "label 0"
- compound: "Cc1cc(S(=O)(=O)N2CCN(c3c(C)cccc3C)CC2)ccc1F"
  assigned label: "label 0"
- compound: "Cc1ccc2nc(NCCNC(=O)c3ccccc3)c(C#N)cc2c1"
  assigned label: "label 1"
- compound: "CC(C)CCN(CCC(C)C)CC(O)Cn1c2ccccc2c(=O)c2ccccc21 (stereo unspecified)"
  assigned label: "label 1"
- compound: "COc1cc(/C(O)=C(\\C#N)c2nc3ccccc3[nH]2)cc(OC)c1OC"
  assigned label: "label 1"
- compound: "CCOC(=O)C1CCN(c2cc(=O)n(C3CCCCC3)c(=O)[nH]2)CC1"
  assigned label: "label 0"
- compound: "O=c1cn[nH]c2ccccc12"
  assigned label: "label 0"
- compound: "O=c1cc(N2CCC(Cc3ccccc3)CC2)[nH]c(=O)n1C1CCCCC1"
  assigned label: "label 0"
- compound: "COc1ccc(CNc2ccc3c(c2)ncn3-c2ccccc2OC)cc1"
  assigned label: "label 0"
- compound: "O=C(Cc1ccccc1)NNc1c2ccccc2nc2ccccc12"
  assigned label: "label 0"
- compound: "Clc1ccc(/C=C/c2ncc3ccccn23)cc1"
  assigned label: "label 1"
- compound: "COCc1ccc(CN2CCCC(CO)(Cc3ccccc3C)C2)o1 (stereo unspecified)"
  assigned label: "label 0"
- compound: "Cc1cccc(-n2c(C)cc(/C=C3\\C(=N)N4N=C(CC(C)C)SC4=NC3=O)c2C)c1"
  assigned label: "label 1"
- compound: "CC1C=CCC2C(=O)N(c3ccccc3OC(=O)c3cccs3)C(=O)C12 (stereo unspecified)"
  assigned label: "label 0"
- compound: "Cc1ccc2nc(N3CCN(Cc4nnnn4Cc4ccccc4)CC3)c(C#N)cc2c1"
  assigned label: "label 1"
- compound: "CCN(CC)CCCNC(=S)N(Cc1cccs1)Cc1cc2cc3c(cc2[nH]c1=O)OCCO3"
  assigned label: "label 0"
- compound: "O=C(Nc1cccc(OC(=O)N2CCCCC2)c1)N1CCCCC1"
  assigned label: "label 0"
- compound: "CC1CCN(c2cc(=O)n(C3CCCCC3)c(=O)[nH]2)CC1"
  assigned label: "label 0"
- compound: "CC(=O)c1ccc(-c2ccc(Cn3c(C)nc4cc(N)c(C)nc43)cc2)cc1"
  assigned label: "label 0"
- compound: "CCN(CC)Cc1c(CC(C)C)oc(C)c1C(=O)O"
  assigned label: "label 0"

====

Target: RanGTP-importin-beta complex (human Ran / KPNB1)
Assay: disruptors of RanGTP/KPNB1 binding – biochemical, FRET, CFP/YFP, cell-free homogeneous, confirmation (AID 2823)
Conditions: CFP-Ran/YFP-importin-beta FRET ratio
Activity calls are given as the source filed them. The rule behind the calls is not given here.
Labels: True for active, False for inactive

- molecule: "COc1ccc(NC(=O)N2CCCCCC2)cc1"
  assigned label: "False"
- molecule: "CC(=O)N1CCc2c(sc(NC(=O)CS(=O)(=O)c3ccc(F)cc3)c2C(N)=O)C1"
  assigned label: "False"
- molecule: "CCN1/C(=C2\\SC(=S)N(Cc3ccccc3)C2=O)Sc2ccccc21"
  assigned label: "False"
- molecule: "CC(=O)c1ccc(-c2cccs2)s1"
  assigned label: "True"
- molecule: "COc1ccc(-c2nc(NC(=O)c3n[nH]c(=O)c4ccccc34)sc2C)cc1"
  assigned label: "False"
- molecule: "Cc1ccc2nc(N3CCN(C(=O)c4ccc(F)cc4)CC3)c(C#N)cc2c1"
  assigned label: "True"
- molecule: "CCOC(=O)C/C(=N\\Nc1ncnc2ccccc12)c1ccccc1"
  assigned label: "False"
- molecule: "COc1ccc(OC)c(N(CC(=O)O)S(=O)(=O)c2ccc(OC)c(OC)c2)c1"
  assigned label: "False"
- molecule: "CC(C)NC(=O)C1CC=CCC1C(=O)O (stereo unspecified)"
  assigned label: "False"
- molecule: "C/C(N)=C(/C#N)C(=O)COc1ncnc2ccccc12"
  assigned label: "False"
- molecule: "CCOC(=O)C1=C(C)NC2=C(C(=O)C(C(=O)OCC)C(c3ccc(OC)cc3)C2)C1c1ccccn1 (stereo unspecified)"
  assigned label: "True"
